Listing: normalized growth of selected compounds
Test: chemical genetic growth profiling, strain panel (AID 1159580);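 note: tested at 20 µM; growth read once vehicle control cultures reached saturation at 30 °C; 1 = growth at the plate median or of vehicle wells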
Conditions: S. cerevisiae deletion strains, growth OD, locus YDR162C, strain NBP2, stronger effect = lower value
Hit rate of the full screen: of about 5,500 compounds, about 2,000 (36%) were called active. About 18% were inconclusive and are not listed. This is one part of the list.
Would you mind answering with just the numeric figure?

Task: Can you share its normalized growth? I mean this compound: `COc1cc(C/C=C/c2ccccc2)c(OC)cc1O`
Result: 0.993

Task: Can you share its normalized growth? I mean this compound: COc1ccccc1OCC(O)CO (stereo unspecified)
Result: 1.01

Task: Can you share its normalized growth? I mean this compound: `COc1c(C)c2c(c(C)c1Cl)Oc1c(Cl)c(OC)c(Cl)c(C)c1C(=O)O2`
Result: 0.987

Task: Can you share its normalized growth? I mean this compound: `CN(C)C(=O)Oc1cccc([N+](C)(C)C)c1`
Result: 0.999

Task: Can you share its normalized growth? I mean this compound: CCC(C)C(=O)OC1[C@@H]2CC3=C4CC(=O)O[C@@H](c5ccoc5)[C@]4(C)CCC3[C@@](C)(C2=O)[C@@H](CC(=O)OC)C1(C)C (stereo partly specified)
Result: 0.995

Task: Can you share its normalized growth? I mean this compound: Cc1c(C)c2c(c(C)c1O)CCC(C)(CCCC(C)CCCC(C)CCCC(C)C)O2 (stereo unspecified)
Result: 0.993

====

Listing: normalized growth of selected molecules
Assay: chemical genetic growth profiling, strain panel (AID 1159580)
Settings: S. cerevisiae deletion strains, growth OD, locus YNL298W, strain CLA4, stronger effect = lower value
About 2,000 (36%) of roughly 5,500 compounds were called active. Another 18% or so got no clear call; they are omitted. Some of the results follow.
Would you mind answering with just the numeric figure?

COc1c(C)c2c(c(C)c1Cl)Oc1c(Cl)c(OC)c(Cl)c(C)c1C(=O)O2 ... 1.03
O=C1NC(O)=NC1(c1ccccc1)c1ccccc1 ... 1.01
CCCOc1ccc2nc(NC(=O)OC)[nH]c2c1 ... 0.965
CN(C)[C@@H]1C(=O)C(C(N)=O)=C(O)[C@@]2(O)C(=O)C3=C(O)c4c(O)cccc4[C@@](C)(O)[C@H]3[C@H](O)[C@@H]12 ... 0.968
N=C(N)N ... 0.999

Task: Can you share its normalized growth? I mean this molecule: CC(=O)O[C@@H]1C=C[C@@]2(C)C(C[C@@H](OC(C)=O)[C@@]3(C)C4=CC(=O)O[C@@H](c5ccoc5)[C@]4(C)CCC23)C1(C)C (some centres not stated)
Result: 0.0602

Task: Can you share its normalized growth? I mean this molecule: `NC(=O)NC(=O)Cc1ccccc1`
Result: 1

Task: Can you share its normalized growth? I mean this molecule: CC(=O)O[C@@H]1CC2C(C)(C)C(=O)C=C[C@]2(C)C2CC[C@]3(C)C(=CC(=O)O[C@H]3c3ccoc3)[C@@]21C (some centres not stated)
Result: 0.963

Task: Can you share its normalized growth? I mean this molecule: `CC(=O)Oc1c(Cl)c(C)c2c(c1Cl)OC(=O)c1c(C)c(Cl)c(OC(C)=O)c(Cl)c1O2`
Result: 0.866

Task: Can you share its normalized growth? I mean this molecule: `CCOC(=O)NNc1nncc2ccccc12`
Result: 0.985

Task: Can you share its normalized growth? I mean this molecule: `NNCc1cccc(O)c1`
Result: 1

Task: Can you share its normalized growth? I mean this molecule: `COC(=O)c1c(C)c2c(c(C)c1OC)OC(=O)c1c(C)c(Cl)c(OC)c(Cl)c1O2`
Result: 1.02

Task: Can you share its normalized growth? I mean this molecule: `CC1=CC(=O)c2ccccc2C1=O`
Result: 0.363

====

Assay: chemical genetic growth profiling, strain panel (AID 1159580)
Settings: S. cerevisiae deletion strains, growth OD, locus YOR231W, strain MKK1, stronger effect = lower value
About 2,000 (36%) of roughly 5,500 compounds were called active. Inconclusive results (about 18%) are left out. The list shows a part of the results.
Listing: normalized growth of selected molecules
Would you mind answering with just the numeric figure?

CC(C)=CCc1c2c(c3occ(-c4ccc(O)cc4)c(=O)c3c1O)C=CC(C)(C)O2 ... 0.991
CNCCCC12CCC(c3ccccc31)c1ccccc12 ... 1.02
CC(=O)Nc1ccc(S(=O)(=O)Nc2onc(C)c2C)cc1 ... 0.989

Task: Can you share its normalized growth? I mean this molecule: O=P1(N(CCCl)CCCl)NCCCO1 (stereo not drawn)
Result: 1

Task: Can you share its normalized growth? I mean this molecule: `CNCCCC1c2ccccc2C=Cc2ccccc21`
Result: 0.976

Task: Can you share its normalized growth? I mean this molecule: C/C=C\C1=C(C(=O)O)N2C(=O)C(NC(=O)C(N)c3ccc(O)cc3)C2SC1 (stereo not drawn)
Result: 1.01

Task: Can you share its normalized growth? I mean this molecule: CC(=O)O[C@@H]1C=C[C@@]2(C)C(C[C@@H](OC(C)=O)[C@@]3(C)C4=CC(=O)O[C@@H](c5ccoc5)[C@]4(C)CCC23)C1(C)C (stereo partly drawn)
Result: 0.985

Task: Can you share its normalized growth? I mean this molecule: `CC(C)(C)NC[C@H](O)c1ccc(O)c(CO)c1`
Result: 0.973

Task: Can you share its normalized growth? I mean this molecule: `CC(C)=CCc1c2c(c3occ(-c4ccc(O)c(O)c4)c(=O)c3c1O)C=CC(C)(C)O2`
Result: 0.917

Task: Can you share its normalized growth? I mean this molecule: CC(C)c1ccc2c(c1)CCC1C(C)(C(N)=O)CCCC21C (stereo not drawn)
Result: 0.891

Task: Can you share its normalized growth? I mean this molecule: `NC(=S)N/N=C1/CCCc2ccccc21`
Result: 0.912

Task: Can you share its normalized growth? I mean this molecule: `CSc1sc(C(=O)Sc2ccccc2)cc1S(=O)(=O)C(C)C`
Result: 0.921

Task: Can you share its normalized growth? I mean this molecule: `O=S(=O)(Nc1ccccc1Oc1ccccc1)c1ccc(-c2ccno2)s1`
Result: 0.888

====

Assay: chemical genetic growth profiling, strain panel (AID 1159580);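 note: tested at 20 µM; growth read once vehicle control cultures reached saturation at 30 °C; 1 = growth at the plate median or of vehicle wells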
Settings: S. cerevisiae deletion strains, growth OD, locus YLR258W, strain gsy2, stronger effect = lower value
Hit rate of the full screen: of about 5,500 compounds, about 2,000 (36%) were called active. About 18% were inconclusive and are not listed. This is one part of the list.
Listing: normalized growth of selected compounds
Would you mind answering with just the numeric figure?

Observe how each entry below is paired with its result.
CC(CCC(=O)O)[C@H]1CCC2C3CC[C@@H]4C[C@H](O)CC[C@]4(C)C3C=C[C@@]21C (stereo partly drawn) ... 0.998
C[C@H](CCC(=O)O)[C@H]1CCC2C3C(=O)CC4CC(=O)CC[C@]4(C)C3CC(=O)[C@@]21C (stereo partly drawn) ... 0.982

Let's switch to this compound now.
Task: Can you share its normalized growth? I mean this compound: `CCN(CC)CCOCCOC(=O)C1(c2ccccc2)CCCC1`
Result: 0.979

====

Test: chemical genetic growth profiling, strain panel (AID 1159580);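 note: tested at 20 µM; growth read once vehicle control cultures reached saturation at 30 °C; 1 = growth at the plate median or of vehicle wells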
Details: S. cerevisiae deletion strains, growth OD, locus YPR167C, strain met16
Screen size: about 5,500 compounds; about 2,000 (36%) were called active. Not shown: some 18% with an inconclusive outcome. Rule as the data show it: active = normalized growth mostly below about 0.91 (no sharp cut-off); inconclusive = no clear call, values can overlap the other calls; inactive = mostly above about 0.92. The list shows a part of the results.
Output constraint: value belongs to active, inactive

Solved cases (8 shown):
CN(C)C(=O)Oc1cccc([N+](C)(C)C)c1 ... inactive
C/C1=C/CC(C)(C)/C=C/C/C(C)=C/CC1 ... inactive
CC(C)c1ccc2c(c1)CCC1C(C)(C(N)=O)CCCC21C (stereo not given) ... inactive
N[C@@H](CCC(=O)N[C@@H](CS)C(=O)NCC(=O)O)C(=O)O ... inactive
CC(Cc1cccc(C(F)(F)F)c1)NCCOC(=O)c1ccccc1 (stereo not given) ... inactive
CC(=O)N[C@@H](Cc1c[nH]c2ccccc12)C(N)=O ... inactive
CN(C)C1C(=O)C(C(N)=O)=C(O)C2(O)C(=O)C3=C(O)c4c(O)ccc(Cl)c4C(C)(O)C3CC12 (stereo not given) ... inactive
COC(=O)c1c(C)c2c(c(C)c1OC)OC(=O)c1c(C)c(Cl)c(OC)c(Cl)c1O2 ... inactive

Task: Fill in: this test's call for C/C1=C\CC(C)(C)/C=C/CC2(C)OC2CC1 (stereo not given) is ___
Result: inactive

Task: Fill in: this test's call for Cc1c(C)c2c(c(C)c1O)CCC(C)(CCCC(C)CCCC(C)CCCC(C)C)O2 (stereo not given) is ___
Result: inactive

Task: Fill in: this test's call for `CCCOc1ccc2nc(NC(=O)OC)[nH]c2c1` is ___
Result: inactive

====

Assay: chemical genetic growth profiling, strain panel (AID 1159580);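 note: tested at 20 µM; growth read once vehicle control cultures reached saturation at 30 °C; 1 = growth at the plate median or of vehicle wells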
Settings: S. cerevisiae deletion strains, growth OD, locus YLR027C, strain aat2, stronger effect = lower value
Hit rate of the full screen: of about 5,500 compounds, about 2,000 (36%) were called active. Roughly 18% stayed inconclusive and do not appear here. Some of the results follow.
Listing: normalized growth of selected compounds
Would you mind answering with just the numeric figure?

CCCN(CCC)S(=O)(=O)c1ccc(C(=O)O)cc1 ... 0.973
COc1ccc2cc(CCC(C)=O)ccc2c1 ... 0.997

Task: Can you share its normalized growth? I mean this compound: `CCOC(=O)[C@H](CCc1ccccc1)N[C@@H](C)C(=O)N1CCC[C@H]1C(=O)O`
Result: 0.985
